# ASSAYED TARGET: KCa2.2 (Rattus norvegicus)
# Construct: Some experiments used stably transfected cells
# PROTOCOL DESCRIPTION: cell-based
# ASSAY CONDITIONS: KCa2.2, standard physiological solution, measured at −20 mV; read-out: IC50 for inhibition of KCa2 current
ASSAY READOUT: pIC50
Please express pIC50 as -log10 of the molar concentration.

RECORD SMILES: c1cc2cc(c1)C[n+]1ccc(c3ccccc31)NCc1ccc(cc1)CNc1cc[n+](c3ccccc13)C2
ASSAYED TARGET: KCa2.2 (Rattus norvegicus)
MEASURED RESULT: 9.28
--
RECORD SMILES: Cc1cc(N)c2ccccc2[n+]1CCCCCCCCCC[n+]1c(C)cc(N)c2ccccc21
ASSAYED TARGET: KCa2.2 (Rattus norvegicus)
MEASURED RESULT: 6.38

Kindly consider the entry below.
Tell me the measured pIC50 of "CC[N+](CC)(CC)CCOc1cccc(OCC[N+](CC)(CC)CC)c1OCC[N+](CC)(CC)CC" , please.
5.15

====

Ki, KCa2.2 (Rattus norvegicus, UniProt P70604), per-entry values.
Just the number please, in µM, no unit attached.

Worked cases, Ki given:
RECORD SMILES: Cc1cc(N)c2ccccc2[n+]1CCCCCCCCCC[n+]1c(C)cc(N)c2ccccc21
Ki [µM]: 0.977

RECORD SMILES: c1cc2cc(c1)C[n+]1ccc(c3ccccc31)NCc1ccc(cc1)CNc1cc[n+](c3ccccc13)C2
Ki [µM]: 0.00101

Kindly consider the entry below.
Give Ki (KCa2.2 (Rattus norvegicus, UniProt P70604)) of the following compound: "CC[N+](CC)(CC)CCOc1cccc(OCC[N+](CC)(CC)CC)c1OCC[N+](CC)(CC)CC"
26

====

Listed here are compounds together with their documented pKi.
# ASSAYED TARGET: KCa2.3 (Rattus norvegicus, UniProt P70605)
# Sequence (P70605 whole entry): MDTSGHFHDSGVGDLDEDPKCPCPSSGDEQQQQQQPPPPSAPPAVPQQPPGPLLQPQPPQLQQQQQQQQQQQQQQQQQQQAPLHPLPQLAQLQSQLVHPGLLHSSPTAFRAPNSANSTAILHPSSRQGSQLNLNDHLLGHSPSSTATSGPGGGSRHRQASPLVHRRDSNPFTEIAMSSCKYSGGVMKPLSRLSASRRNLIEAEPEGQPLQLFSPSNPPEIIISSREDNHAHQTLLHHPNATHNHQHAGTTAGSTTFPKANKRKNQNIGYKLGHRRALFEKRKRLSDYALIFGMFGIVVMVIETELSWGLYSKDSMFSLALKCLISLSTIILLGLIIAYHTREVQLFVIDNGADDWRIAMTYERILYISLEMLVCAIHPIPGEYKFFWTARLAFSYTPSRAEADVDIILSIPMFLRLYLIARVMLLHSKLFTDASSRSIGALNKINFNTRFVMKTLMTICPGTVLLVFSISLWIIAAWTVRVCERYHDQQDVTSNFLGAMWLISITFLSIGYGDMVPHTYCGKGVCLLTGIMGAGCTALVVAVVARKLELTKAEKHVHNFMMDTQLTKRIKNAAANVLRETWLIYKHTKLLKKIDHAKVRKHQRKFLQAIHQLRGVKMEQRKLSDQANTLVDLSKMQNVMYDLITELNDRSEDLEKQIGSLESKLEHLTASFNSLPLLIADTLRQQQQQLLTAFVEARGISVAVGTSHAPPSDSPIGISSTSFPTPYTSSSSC
Please express pKi as -log10 of the molar concentration.

COMPOUND: CC[N+](CC)(CC)CCOc1cccc(OCC[N+](CC)(CC)CC)c1OCC[N+](CC)(CC)CC [Gallamine, gallamine]
pKi: 4.15

Give pKi (KCa2.3 (Rattus norvegicus, UniProt P70605)) of the following compound: c1cc2cc(c1)C[n+]1ccc(c3ccccc31)NCc1ccc(cc1)CNc1cc[n+](c3ccccc13)C2 [UCL1684]
8.11

Give pKi (KCa2.3 (Rattus norvegicus, UniProt P70605)) of the following compound: Cc1cc(N)c2ccccc2[n+]1CCCCCCCCCC[n+]1c(C)cc(N)c2ccccc21 [Dequalinium, dequalinium]
6.06
